Reported melting point values for a set of molecules

molecule | melting point
CC1=Nc2ccc(C)cc2C(=O)C1 | 80 to 82 °C

Q. Identify measured melting point associated with Cc1ccc(-n2cccc2C=O)c(Cl)c1
A. 111 to 112 °C

Q. Identify measured melting point associated with COc1ccc(C#N)cc1/C=C/C(=O)N[C@H](CO)CN1CCC(C(=O)c2ccc(Cl)cc2)CC1
A. 162 to 163 °C

Q. Identify measured melting point associated with COc1ccc(C(=O)Oc2cc(OCCO/N=C/c3ccc(C(C)(C)C)cc3)ccc2C(=O)O)cc1
A. 116 to 118 °C

====

observationType: melting point

compound | testValue
O=C1CCN(CCCn2c(=O)[nH]c3ccccc32)CC1 | 134 to 136 °C

Q. Identify measured melting point associated with Cn1nc(OCCCc2cc(-c3ccc(C(F)(F)F)cc3)no2)cc1C(=O)O
A. 162 to 163 °C

Q. Identify measured melting point associated with c1ccc(C2OC3(CCNCC3)N3CCCCC23)cc1 (stereo unspecified)
A. 169 to 171 °C

Q. Identify measured melting point associated with CCCCCCOc1nc(N)c2ncn(C3CCCCC3)c2n1
A. 57 to 60 °C

Q. Identify measured melting point associated with COc1cccc2c1OC(CO)C2=O (stereo unspecified)
A. 103 to 104 °C

Q. Identify measured melting point associated with COc1ccc(CSc2cnccc2C#N)cc1
A. 80 to 81 °C

Q. Identify measured melting point associated with CC(O)C(NCc1ccc([N+](=O)[O-])cc1)C(=O)O (stereo unspecified)
A. 142 to 143 °C

Q. Identify measured melting point associated with Cn1c(C2=CC(=O)c3ccccc3C2=O)ccc1C1=CC(=O)c2ccccc2C1=O
A. 320 to 321 °C

Q. Identify measured melting point associated with CC1(COc2ccc(Cc3nnn[nH]3)cc2)CCCCC1O (stereo unspecified)
A. 103 to 108 °C

Q. Identify measured melting point associated with CC(C)C[C@H](NC(=O)N1CCCCCC1)C(=O)O
A. 88 to 89 °C

Q. Identify measured melting point associated with Cc1cccc(Nc2cc(Cl)nc(SCC(=O)NN3CCCCC3)n2)c1C
A. 113 to 115 °C
